target: Ribosomal protein S6 kinase alpha-3 (Homo sapiens, UniProt P51812); experiment: Inhibition of human recombinant RSK2
Sequence (P51812 whole entry): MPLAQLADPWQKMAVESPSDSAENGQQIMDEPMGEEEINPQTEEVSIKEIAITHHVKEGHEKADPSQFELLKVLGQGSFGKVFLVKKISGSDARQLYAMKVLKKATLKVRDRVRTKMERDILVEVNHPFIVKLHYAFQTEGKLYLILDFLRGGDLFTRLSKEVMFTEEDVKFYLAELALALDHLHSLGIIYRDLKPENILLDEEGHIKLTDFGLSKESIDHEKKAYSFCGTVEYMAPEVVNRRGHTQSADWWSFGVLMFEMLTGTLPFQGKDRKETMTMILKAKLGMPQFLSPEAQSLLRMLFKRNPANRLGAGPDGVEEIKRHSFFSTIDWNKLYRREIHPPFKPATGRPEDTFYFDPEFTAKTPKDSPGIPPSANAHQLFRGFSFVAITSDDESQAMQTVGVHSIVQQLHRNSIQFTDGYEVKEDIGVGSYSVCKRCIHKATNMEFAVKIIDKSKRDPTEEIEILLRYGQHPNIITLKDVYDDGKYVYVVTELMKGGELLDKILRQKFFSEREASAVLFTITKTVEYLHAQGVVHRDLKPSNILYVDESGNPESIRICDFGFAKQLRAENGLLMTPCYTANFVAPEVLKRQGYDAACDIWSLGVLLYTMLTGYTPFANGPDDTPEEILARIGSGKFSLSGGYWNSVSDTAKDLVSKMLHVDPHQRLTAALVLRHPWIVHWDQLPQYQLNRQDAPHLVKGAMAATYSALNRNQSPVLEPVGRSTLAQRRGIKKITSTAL
Where a name gives a salt, the structure may show the parent alone.
Assay readout: IC50 (µM)
Please respond with the number in µM and leave the unit unwritten.

Please tell me: IC50 of COC(=O)/C=C/C(=O)OC [DIMETHYL FUMARATE] , system Ribosomal protein S6 kinase alpha-3 (Homo sapiens, UniProt P51812)?
225

----------
molecular target: Ribosomal protein S6 kinase alpha-3 (Homo sapiens, UniProt P51812); experiment: Inhibition of wild type RSK2 (unknown origin)
Assay readout: pIC50
Expect pIC50 as a plain number equal to -log10 of the molar concentration.

Returns the measured pIC50 for the input molecule. Input: `Cc1ccc(-c2c(C(=O)CCl)n(CCCO)c3ncnc(N)c23)cc1`
7.82

----------
IC50 values recorded for Ribosomal protein S6 kinase alpha-1 (Homo sapiens, UniProt Q15418)
Please respond with the number in nM and leave the unit unwritten.

Please tell me: IC50 of `CC(=O)O[C@@H]1[C@@H](OC(C)=O)[C@@H](O)[C@H](Oc2c(-c3ccc(O)cc3)oc3cc(O)cc(O)c3c2=O)O[C@H]1C` , system Ribosomal protein S6 kinase alpha-1 (Homo sapiens, UniProt Q15418)?
89

Try the compound CN(C)CCCn1cc(C2=C(c3c[nH]c4ccccc34)C(=O)NC2=O)c2ccccc21 [GF-109203]
610

Try the compound Cn1cc(C2=C(c3cn(CCCSC(=N)N)c4ccccc34)C(=O)NC2=O)c2ccccc21 [BISINDOLYLMALEIMIDE IX]
200

Try the compound Cn1cc(C2=C(c3ccc(Cl)cc3Cl)C(=O)NC2=O)c2ccccc21 [SB-216763]
100

Sourced from ChEMBL document CHEMBL5360539
